Assay Comment: recombinant barcode read abundance after kanamycin selection (control-corrected) (log10(CPM+1)); higher = more efficient recombination; sequences stand for … in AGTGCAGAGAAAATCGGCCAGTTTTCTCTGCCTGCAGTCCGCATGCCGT…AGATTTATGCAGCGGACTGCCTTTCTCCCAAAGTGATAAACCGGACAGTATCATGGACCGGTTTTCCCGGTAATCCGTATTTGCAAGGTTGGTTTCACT; site = the 11-nt target
Reported Property: recombinant barcode read abundance (log10)
Form: value (number only, do not type unit).

Problem: Entry TCCCATACTTGGGTTCTAACCTGTTGCCT (site TCCCATTCTAG) : reported recombinant barcode read abundance (log10) = ?
Result: 0.0766

Problem: recombinant barcode read abundance (log10) lookup needed for CAGCGGCCTTGGGTTCTAACCTGTTGCCT (site CAGAGGCCTAG) , thanks.
Result: 0.191

Problem: Fill in: recombinant barcode read abundance (log10) of TAACACTCTTGGGTTCTAACCTGTTGCTT (site GAACACTCTCA) is ___
Result: 0.105

Problem: // recombinant barcode read abundance (log10) lookup, key: GATGCTACTTGGGTTCTAACCTGTTGCCA (site GATCCTACTTG)
Result: 0.124

Problem: Recorded recombinant barcode read abundance (log10) of CAAACTACTTGGGTTCTAACCTGTTGCAC (site CAAACTACTTA) , please.
Result: 0.0177

Problem: Give the measured recombinant barcode read abundance (log10) of TGTAGTCCTTGGGTTCTAACCTGTTGCGT (site TGTAGTCCTAT) .
Result: 0.0925

Problem: What does the data say about its recombinant barcode read abundance (log10)? Entry: TGGCCCTCTTGGGTTCTAACCTGTTGCTC (site TGGCCCTCTGA)
Result: 1.79

Problem: Reported recombinant barcode read abundance (log10) for CCAAGCCCTTGGGTTCTAACCTGTTGCCT (site CCAAGCGCTAG) : what is it?
Result: 0.0593

Problem: Requested read-out: recombinant barcode read abundance (log10). Entry: TCGTGCCCTTGGGTTCTAACCTGTTGCCT (site TCGTGCTCTAG)
Result: 0.0522

Problem: // lookup recombinant barcode read abundance (log10) for CGTCCTGCTTGGGTTCTAACCTGTTGCCT (site GGTCCTGCTAG)
Result: 0

====

Assay Comment: recombinant UMI read abundance after kanamycin selection (control-corrected) (log10(CPM+1)); higher = more efficient recombination; extreme values may be limits of the assay; sequences stand for … in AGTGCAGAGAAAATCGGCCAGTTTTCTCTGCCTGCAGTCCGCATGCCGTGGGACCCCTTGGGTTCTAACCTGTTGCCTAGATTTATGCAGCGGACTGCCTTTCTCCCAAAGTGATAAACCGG…AGGTTGGTTTCACT; site = the 11-nt donor
Assign recombinant UMI read abundance (log10) to each entry below.

Problem: Entry CGTATGGCATGGACCGGTTTTCCCGGTAATCCGTATTTGCT (site CGTGTGGCTAG) has what recombinant UMI read abundance (log10)?
Result: 0.0109

Problem: Looking for the measured recombinant UMI read abundance (log10) of TATTTGACATGGACCGGTTTTCCCGGTAATCCGTATTTGTG (site TATTTGGCTCA) , can you help?
Result: 0.00542

Problem: What value of measured recombinant UMI read abundance (log10) is listed for GTATGCACATGGACCGGTTTTCCCGGTAATCCGTATTTGTG (site GTATGCACTAA) ?
Result: 0.198

Problem: Which measured recombinant UMI read abundance (log10) value corresponds to AATGAGACATGGACCGGTTTTCCCGGTAATCCGTATTTGGT (site ATTGAGACTAC) ?
Result: 0.678

Problem: # get_value(readout='recombinant UMI read abundance (log10)', item= CTCTATACATGGACCGGTTTTCCCGGTAATCCGTATTTGCT (site CTCTAAACTAG) )
Result: 0

Problem: I would be grateful if you could share the reported recombinant UMI read abundance (log10) for AGTTCCTCATGGACCGGTTTTCCCGGTAATCCGTATTTGCA (site AGTTCCTCTTG) .
Result: 2.47

Problem: Return reported recombinant UMI read abundance (log10); argument: GTATGCTCATGGACCGGTTTTCCCGGTAATCCGTATTTGTA (site GTATGCGCTTA)
Result: 0.0181

Problem: Returns the measured recombinant UMI read abundance (log10) for the input sequence. Input: AAACGTCCATGGACCGGTTTTCCCGGTAATCCGTATTTGAT (site AATCGTCCTAT)
Result: 0.0129

Problem: Requested field: recombinant UMI read abundance (log10). Item: GCCACGTCATGGACCGGTTTTCCCGGTAATCCGTATTTGCA (site GCCACGTCTTG)
Result: 2.76

====

Assay Comment: recombinant UMI read abundance after kanamycin selection (control-corrected) (log10(CPM+1)); higher = more efficient recombination; extreme values may be limits of the assay; sequences stand for … in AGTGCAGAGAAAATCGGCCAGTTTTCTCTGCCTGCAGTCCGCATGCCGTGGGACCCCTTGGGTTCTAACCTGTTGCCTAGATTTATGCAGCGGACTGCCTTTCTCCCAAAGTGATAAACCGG…AGGTTGGTTTCACT; site = the 11-nt donor
Reported Property: recombinant UMI read abundance (log10)
Response field accepts a number only; no unit should be typed.

Problem: recombinant UMI read abundance (log10) lookup needed for GGCACGCCATGGACCGGTTTTCCCGGTAATCCGTATTTGTA (site GCCACGCCTTA) , thanks.
Result: 0.006

Problem: Look up recombinant UMI read abundance (log10): TCCACTTCATGGACCGGTTTTCCCGGTAATCCGTATTTGCC (site TCCAGTTCTGG)
Result: 0

Problem: Value lookup for recombinant UMI read abundance (log10); key = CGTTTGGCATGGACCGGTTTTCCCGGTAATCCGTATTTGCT (site CGTTTGGCTAG)
Result: 0

Problem: What recombinant UMI read abundance (log10) value was documented for this sequence, CGGGAACCATGGACCGGTTTTCCCGGTAATCCGTATTTGAC (site CGGGAACCTGT) ?
Result: 0

Problem: Reported recombinant UMI read abundance (log10) for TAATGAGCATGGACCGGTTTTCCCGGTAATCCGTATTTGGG (site TAATGAGCTGC) : what is it?
Result: 0

Problem: Which recombinant UMI read abundance (log10) value is on record for GGCACGTCATGGACCGGTTTTCCCGGTAATCCGTATTTGTT (site GGAACGTCTAA) ?
Result: 0.027

Problem: Value lookup for recombinant UMI read abundance (log10); key = GCCGCGCCATGGACCGGTTTTCCCGGTAATCCGTATTTGTA (site GCCTCGCCTTA)
Result: 0.18

Problem: I'd like to know its recombinant UMI read abundance (log10). The sequence in question is CTTCTGTCATGGACCGGTTTTCCCGGTAATCCGTATTTGTA (site CTTCTGTCTTA)
Result: 2.01

Problem: // lookup recombinant UMI read abundance (log10) for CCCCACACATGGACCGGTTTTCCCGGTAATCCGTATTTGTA (site ACCCACACTTA)
Result: 0.0144

====

Kindly state recombinant UMI read abundance (log10) for each of the entries shown.
Assay Comment: recombinant UMI read abundance after kanamycin selection (control-corrected) (log10(CPM+1)); higher = more efficient recombination; extreme values may be limits of the assay; sequences stand for … in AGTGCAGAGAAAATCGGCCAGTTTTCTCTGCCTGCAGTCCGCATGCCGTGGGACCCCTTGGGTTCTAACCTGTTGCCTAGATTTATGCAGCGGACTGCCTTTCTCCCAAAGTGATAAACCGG…AGGTTGGTTTCACT; site = the 11-nt donor
Simply state the number, no unit and no words.

Problem: Recorded recombinant UMI read abundance (log10) of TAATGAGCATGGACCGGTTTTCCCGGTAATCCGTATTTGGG (site AAATGAGCTCC) , please.
Result: 0.117

Problem: // returns reported recombinant UMI read abundance (log10) for input CAGTCGACATGGACCGGTTTTCCCGGTAATCCGTATTTGGC (site CAGTCGACTTC)
Result: 0.0416

Problem: Report recombinant UMI read abundance (log10) for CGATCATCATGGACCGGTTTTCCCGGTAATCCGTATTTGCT (site CGATCTGCTAG) please.
Result: 0

Problem: Reported recombinant UMI read abundance (log10) for CTTGTATCATGGACCGGTTTTCCCGGTAATCCGTATTTGAT (site CTTGTATCTAT) : what is it?
Result: 1.29

Problem: Please give the measured recombinant UMI read abundance (log10) for this sequence: AGCACAGCATGGACCGGTTTTCCCGGTAATCCGTATTTGAC (site AGCACAGCTGT)
Result: 2.8

Problem: Look up recombinant UMI read abundance (log10): AGACAGGCATGGACCGGTTTTCCCGGTAATCCGTATTTGCT (site AGAGAGGCTAG)
Result: 0

Problem: Name the reported recombinant UMI read abundance (log10) value associated with the sequence CTGCCGACATGGACCGGTTTTCCCGGTAATCCGTATTTGCG (site CTGCCGACTCG)
Result: 1.83

Problem: Requested field: recombinant UMI read abundance (log10). Item: CATGTGACATGGACCGGTTTTCCCGGTAATCCGTATTTGAT (site CATGTGACTAT)
Result: 2.03

Problem: Endpoint output: recombinant UMI read abundance (log10) of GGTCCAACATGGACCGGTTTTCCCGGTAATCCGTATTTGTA (site GATCCAACTTA) . Value?
Result: 0.0069
